Values were extracted from patent US10947242B2.

- Assay System: Human recombinant PDE3A (hPDE3A) (Homo sapiens, UniProt Q14432)
- Construct: purchased Scottish Biomedical; host or cells: Sf9 insect cells
- Sequence (Q14432 whole entry): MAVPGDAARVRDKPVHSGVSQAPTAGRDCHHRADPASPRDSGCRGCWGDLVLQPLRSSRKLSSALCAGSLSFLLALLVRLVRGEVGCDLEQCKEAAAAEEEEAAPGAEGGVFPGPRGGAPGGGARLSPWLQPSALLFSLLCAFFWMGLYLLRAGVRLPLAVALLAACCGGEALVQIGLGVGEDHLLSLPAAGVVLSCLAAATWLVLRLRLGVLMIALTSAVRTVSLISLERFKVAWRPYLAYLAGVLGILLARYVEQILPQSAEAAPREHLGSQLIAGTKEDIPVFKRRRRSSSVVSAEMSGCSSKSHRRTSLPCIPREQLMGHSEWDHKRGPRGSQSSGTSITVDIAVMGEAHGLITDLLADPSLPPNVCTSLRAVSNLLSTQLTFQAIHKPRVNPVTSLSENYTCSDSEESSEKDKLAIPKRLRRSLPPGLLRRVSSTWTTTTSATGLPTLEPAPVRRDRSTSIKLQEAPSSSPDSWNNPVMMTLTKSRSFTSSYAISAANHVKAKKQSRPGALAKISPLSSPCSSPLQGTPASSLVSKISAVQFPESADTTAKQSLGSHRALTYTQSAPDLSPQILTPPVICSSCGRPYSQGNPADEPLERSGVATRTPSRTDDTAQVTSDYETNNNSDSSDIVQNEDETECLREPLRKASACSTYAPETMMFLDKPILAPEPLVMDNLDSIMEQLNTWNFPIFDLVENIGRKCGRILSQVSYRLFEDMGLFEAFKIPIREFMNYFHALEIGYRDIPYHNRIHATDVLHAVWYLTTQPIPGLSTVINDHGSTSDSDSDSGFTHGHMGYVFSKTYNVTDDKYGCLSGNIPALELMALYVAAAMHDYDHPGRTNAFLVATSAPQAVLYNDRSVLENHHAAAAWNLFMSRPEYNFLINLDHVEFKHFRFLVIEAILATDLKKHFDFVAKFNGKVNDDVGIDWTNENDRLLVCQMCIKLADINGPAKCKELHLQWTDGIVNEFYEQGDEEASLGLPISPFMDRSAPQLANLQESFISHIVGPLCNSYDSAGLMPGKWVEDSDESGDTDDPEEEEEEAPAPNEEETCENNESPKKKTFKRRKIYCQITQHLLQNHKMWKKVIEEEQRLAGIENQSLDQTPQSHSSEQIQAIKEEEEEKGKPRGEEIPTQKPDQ
- Assay Summary: In vitro assay PDE3A (SPA, 3H-cAMP hydrolysis);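 note: the method names PDE3A and the table heading PDE3B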
- Format: biochemical
- Test Settings: hPDE3B pIC50; read-out: pIC50 (converted)
Measurement Kind: IC50 (µM)
Number only, in µM; omit the unit.

Cc1nc(C)c(C(=O)N2CC[C@@H](C)[C@H](c3cc(C(F)F)nc4ncnn34)C2)s1 = 10.5
Cc1ccc(C(=O)N2[C@H]3CC[C@H](c4cc(C(F)F)nc5ncnn45)[C@@H]2CC3)o1 = 9.77

Please examine the following record next.
(Q) Provide IC50 value for the following compound: Cc1nc(C(F)(F)F)ccc1C(=O)N1CC[C@@H](C)[C@H](c2cc(C(F)F)nc3ncnn23)C1
(A) 4.9

###

# reported Emax; entries follow
- Assay System: Human recombinant PDE3A (hPDE3A) (Homo sapiens, UniProt Q14432)
- Construct: purchased Scottish Biomedical; host or cells: Sf9 insect cells
- Assay Summary: In vitro assay PDE3A (SPA, 3H-cAMP hydrolysis);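 note: the method names PDE3A and the table heading PDE3B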
- Assay type: biochemical
- Test Settings: read-out: hPDE3B Emax; read-out: Emax
Number only, in %; omit the unit.

Worked set:
Cc1cc([C@@H]2CN(C(=O)c3cnc4ccc(C(F)(F)F)cn34)CC[C@H]2C)n2ncnc2n1 = 74
COc1cc(C(=O)N2CC[C@@H](C)[C@H](c3cc(C(F)F)nc4ncnn34)C2)ccc1F = 70
C[C@@H]1CCN(C(=O)c2ccc(F)nc2)C[C@H]1c1cc(C(F)F)nc2ncnn12 = 25
Cc1cc([C@@H]2CN(C(=O)c3cc(C)c(Cl)c(C)c3)CC[C@H]2C)n2ncnc2n1 = 98
O=C(c1ccc2ccccc2c1)N1[C@H]2CC[C@H](c3cc(C(F)F)nc4ncnn34)[C@@H]1CC2 = 95
CC1(c2cc(C(F)F)nc3ncnn23)CCCN(C(=O)c2ccc3occc3c2)C1 (centres unmarked) = 24
C[C@@H]1CCN(C(=O)c2ccncn2)C[C@H]1c1cc(C(F)F)nc2ncnn12 = 12

Please examine the following record next.
(Q) # assay system Human recombinant PDE3A (hPDE3A) (Homo sapiens, UniProt Q14432): give Emax of C[C@@H]1CCN(C(=O)c2cc(C3CC3)ncc2F)C[C@@]1(F)c1cc(C(F)F)nc2ncnn12
(A) 14

###

- Assay System: Human recombinant PDE2A (hPDE2A) (Homo sapiens, UniProt O00408)
- Construct: His tag (inferred from metal chelate purification); made in house; host or cells: Sf9 insect cells (baculovirus)
- Sequence (O00408 whole entry): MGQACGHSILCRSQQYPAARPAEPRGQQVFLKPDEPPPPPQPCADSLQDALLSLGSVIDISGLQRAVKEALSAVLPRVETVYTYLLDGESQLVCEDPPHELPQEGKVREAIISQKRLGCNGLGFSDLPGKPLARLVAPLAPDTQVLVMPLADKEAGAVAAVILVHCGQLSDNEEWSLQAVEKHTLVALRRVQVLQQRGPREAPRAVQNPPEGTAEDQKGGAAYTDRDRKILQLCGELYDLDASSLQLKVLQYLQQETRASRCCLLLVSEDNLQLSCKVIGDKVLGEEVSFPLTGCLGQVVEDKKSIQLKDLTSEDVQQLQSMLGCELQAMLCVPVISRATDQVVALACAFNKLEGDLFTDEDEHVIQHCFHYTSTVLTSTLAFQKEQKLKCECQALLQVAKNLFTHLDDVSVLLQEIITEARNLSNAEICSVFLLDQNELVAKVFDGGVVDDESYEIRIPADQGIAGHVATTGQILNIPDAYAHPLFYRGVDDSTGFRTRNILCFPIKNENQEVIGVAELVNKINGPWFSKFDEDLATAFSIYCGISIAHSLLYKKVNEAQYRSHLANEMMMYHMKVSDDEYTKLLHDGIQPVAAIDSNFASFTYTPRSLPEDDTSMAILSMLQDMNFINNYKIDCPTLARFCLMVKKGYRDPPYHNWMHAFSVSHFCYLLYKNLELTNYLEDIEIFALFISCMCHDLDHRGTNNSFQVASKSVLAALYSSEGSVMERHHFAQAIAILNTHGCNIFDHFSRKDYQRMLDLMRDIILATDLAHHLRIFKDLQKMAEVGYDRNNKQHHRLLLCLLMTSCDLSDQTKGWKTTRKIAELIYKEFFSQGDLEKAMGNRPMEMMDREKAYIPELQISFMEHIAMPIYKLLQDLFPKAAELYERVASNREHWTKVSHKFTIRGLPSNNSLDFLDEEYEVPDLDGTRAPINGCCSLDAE
- Assay Summary: In vitro assay PDE2A (SPA, 3H-cGMP hydrolysis)
- Assay type: biochemical
- Test Settings: human recombinant PDE2A; read-out: hPDE2A Emax
# reported Emax; entries follow
Form entry: enter the amount, then its unit.

Cc1c(C(=O)N2CC[C@@H](C)[C@H](c3cc(C(F)F)nc4ncnn34)C2)ccc2c1OCO2 = 99%
COc1ccc(C(C)(C)C)cc1C(=O)N1CC[C@@H](C)[C@H](c2cc(C(F)F)nc3ncnn23)C1 = 100%
C[C@@H]1CCN(C(=O)c2ccc(C#N)cn2)C[C@H]1c1cc(C(F)F)nc2ncnn12 = 96%

(Q) Provide Emax value for the following molecule: Cc1cc([C@@H]2CN(C(=O)c3ccc(C(C)(C)C)o3)CC[C@H]2C)n2ncnc2n1
(A) 101%

(Q) Provide Emax value for the following molecule: Cc1nc2ccc(C(=O)N3CC[C@@H](C)[C@H](c4cc(C(F)F)nc5ncnn45)C3)cc2o1
(A) 99%

(Q) Provide Emax value for the following molecule: C[C@@H]1CCN(C(=O)c2ccnc(C3CC3)c2F)C[C@H]1c1cc(C(F)F)nc2ncnn12
(A) 100%

(Q) Provide Emax value for the following molecule: C[C@@H]1CCN(C(=O)c2ccc(O)c(F)c2)C[C@H]1c1cc(C(F)F)nc2ncnn12
(A) 98%

(Q) Provide Emax value for the following molecule: C[C@@H]1CCN(C(=O)c2ccc(O)nn2)C[C@H]1c1cc(C(F)F)nc2ncnn12
(A) 100%

(Q) Provide Emax value for the following molecule: C[C@@H]1CCN(C(=O)c2ccc(C(C)(C)C)o2)C[C@H]1c1cc(C(F)F)nc2ncnn12
(A) 101%

(Q) Provide Emax value for the following molecule: Cc1cc(C(=O)N2CC[C@@H](C)[C@](F)(c3cc(C(F)F)nc4ncnn34)C2)cc(C)n1
(A) 101%

(Q) Provide Emax value for the following molecule: Cc1cc(C(=O)N2CC[C@@H](C)[C@H](c3cc(C(F)F)nc4ncnn34)C2)cnc1C
(A) 99%

(Q) Provide Emax value for the following molecule: C[C@@H]1CCN(C(=O)c2csc(N)n2)C[C@H]1c1cc(C(F)F)nc2ncnn12
(A) 100%

(Q) Provide Emax value for the following molecule: Cc1cnc(C(=O)N2CC[C@@H](C)[C@H](c3cc(C(F)F)nc4ncnn34)C2)cn1
(A) 99%

(Q) Provide Emax value for the following molecule: C[C@@H]1CCN(C(=O)c2cc(OC(F)F)cc(C3CC3)c2)C[C@H]1c1cc(C(F)F)nc2ncnn12
(A) 100%

(Q) Provide Emax value for the following molecule: C[C@@H]1CCN(C(=O)c2ccncc2C(F)(F)F)C[C@H]1c1cc(C(F)F)nc2ncnn12
(A) 96%
